Attribution: patent US20260327191A1

biological target: GSK3B (Homo sapiens, UniProt P49841); assay: In vitro enzymatic activity assay, GSK3β; assay type: biochemical; design: Full length human GSK3α or GSK3B expressed as N-terminal GST fusion proteins; GST (N); purchased Carna Biosciences (Japan); host or cells: baculovirus host; conditions: 1.0 mM ATP, 1.0 μM peptide substrate, 120 min, 25° C, read-out: Enzyme GSK3β (IC50)
Sequence (P49841 whole entry, the tested form may be a part): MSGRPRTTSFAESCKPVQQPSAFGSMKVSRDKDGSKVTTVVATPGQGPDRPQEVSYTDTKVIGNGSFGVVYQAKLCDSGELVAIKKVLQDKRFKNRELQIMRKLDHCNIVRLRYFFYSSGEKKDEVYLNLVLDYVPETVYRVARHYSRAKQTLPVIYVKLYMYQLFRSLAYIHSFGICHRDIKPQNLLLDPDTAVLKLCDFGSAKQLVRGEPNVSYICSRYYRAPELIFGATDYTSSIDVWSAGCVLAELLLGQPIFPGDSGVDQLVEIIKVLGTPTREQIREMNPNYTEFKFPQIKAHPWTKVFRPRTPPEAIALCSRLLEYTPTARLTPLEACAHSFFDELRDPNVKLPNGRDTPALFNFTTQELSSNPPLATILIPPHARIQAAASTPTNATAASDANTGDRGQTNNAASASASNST
// boundary case: IC50 equal to 300 nM maps to criterion not met; strictly smaller maps to criterion met

compound="CCOc1cc(Cl)c(-n2cnc(N)c(C(=O)Nc3cncc(C(C)N)c3)c2=O)c(Cl)c1 (single isomer, unassigned) [Example 142]" target_entity="GSK3B (Homo sapiens, UniProt P49841)" category_label="criterion not met"
compound="COCc1cc(Cl)c(-n2cnc(N)c(C(=O)Nc3cncc([C@H](N)CC(F)F)c3)c2=O)c(Cl)c1 (single isomer, unassigned)" target_entity="GSK3B (Homo sapiens, UniProt P49841)" category_label="criterion met"
compound="Cc1cc(C#N)cc(Cl)c1-n1cnc(N)c(C(=O)Nc2cccc([C@@H](C)N)c2)c1=O (atropisomer, axis not shown)" target_entity="GSK3B (Homo sapiens, UniProt P49841)" category_label="criterion met"
compound="CCOc1cc(C)c(-n2cnc(N)c(C(=O)Nc3cncc(C4CCCC(C)N4)c3)c2=O)c(C)c1 (single isomer, unassigned)" target_entity="GSK3B (Homo sapiens, UniProt P49841)" category_label="criterion not met"
compound="COc1cc(Cl)c(-n2cnc(N)c(C(=O)Nc3cncc4c3CCC43CCCN3)c2=O)c(Cl)c1 (stereo not shown)" target_entity="GSK3B (Homo sapiens, UniProt P49841)" category_label="criterion met"
compound=COC[C@@H](N)c1cncc(NC(=O)c2c(N)ncn(-c3c(Cl)cc(OC)cc3Cl)c2=O)c1 target_entity="GSK3B (Homo sapiens, UniProt P49841)" category_label="criterion met"
compound=COc1cc(Cl)c(-n2cnc(N)c(C(=O)Nc3cncc(C4(N)CCC4)c3)c2=O)c(Cl)c1 target_entity="GSK3B (Homo sapiens, UniProt P49841)" category_label="criterion met"
